TARGET ENTITY: T1, HTRA3, P83110
T1 sequence (P83110 354-453, limits assumed, looked up): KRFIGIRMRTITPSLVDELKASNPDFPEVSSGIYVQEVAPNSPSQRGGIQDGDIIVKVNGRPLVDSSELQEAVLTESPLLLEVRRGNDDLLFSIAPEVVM
METHOD NOTES: holdup assay
Set-up: key: below the threshold = too weak to quantify, mostly under pKd 3.1 to 4
APPLIED CONDITIONS: plain residues with an end cap or a label only (N-terminal biotin on a linker: ado-ado)
PROPERTY: pKd

Worked cases, pKd given:
| BINDER | PROPERTY | REPORTED MEASUREMENT |
| --- | --- | --- |
| HLRARKSEWV [GJD4, Q96KN9] | pKd | 5.81 |
| QPCFNKLFPL [LPXN, O60711] | pKd | below the threshold |
| DTTVPESEDL [MYOZ2, Q9NPC6] | pKd | below the threshold |
| VRNLPESEEL [MYOZ3, Q8TDC0] | pKd | below the threshold |
| RHGSCVETSL [TMEM151B, Q8IW70] | pKd | below the threshold |

QUERY: I'd like to know its pKd. The binder in question is TLPRKRMSSI [GPRC6A, Q5T6X5]
RESULT: below the threshold
